Below is a list of entries, each paired with its recorded log10 GI50 value.
assay: Growth inhibition of human WM3629 cells by MTT assay; assay type: functional
Hey, these are logged values: log10 of GI50, µM being the unit before logging.

Illustrative cases are given below, each with its answer.
C[C@H](O)CNc1nccc(-n2ccnc2-c2cccc(NC(=O)c3ccc(Cl)c(C(F)(F)F)c3)c2)n1 = -0.21
C[C@H](O)CNc1nccc(-n2ccnc2-c2cccc(NC(=O)Nc3ccc(Cl)c(Cl)c3)c2)n1 = -0.19
C[C@H](O)CNc1nccc(-n2ccnc2-c2ccc(NC(=O)Nc3ccc(Cl)c(C(F)(F)F)c3)cc2)n1 = 0.65
C[C@H](O)CNc1nccc(-n2ccnc2C(=O)c2ccc(NC(=O)c3ccc(Cl)c(C(F)(F)F)c3)cc2)n1 = 0.14

Which log10 GI50 is reported for this compound? `C[C@H](O)CNc1nccc(-n2ccnc2-c2ccc(NC(=O)c3cc(N4CCOCC4)cc(C(F)(F)F)c3)cc2)n1`
0.35

How about this compound: CNC(=O)c1cc(Oc2ccc(NC(=O)Nc3ccc(Cl)c(C(F)(F)F)c3)cc2)ccn1 [SORAFENIB]
-0.11

How about this compound: `C[C@H](O)CNc1nccc(-n2ccnc2-c2cccc(NC(=O)c3cc(N4CCN(C)CC4)cc(C(F)(F)F)c3)c2)n1`
0.96

How about this compound: `C[C@H](O)CNc1nccc(-n2ccnc2-c2cccc(NC(=O)Nc3cccc(C(F)(F)F)c3)c2)n1`
0.90

How about this compound: `C[C@H](O)CNc1nccc(-n2ccnc2-c2cccc(NC(=O)c3ccc(N4CCOCC4)c(C(F)(F)F)c3)c2)n1`
0.87

How about this compound: `C[C@H](O)CNc1nccc(-n2ccnc2C(=O)c2ccc(NC(=O)Nc3ccc(Cl)c(C(F)(F)F)c3)cc2)n1`
0.55

How about this compound: `COc1ccc(-c2cc(C(=O)Nc3cccc(-c4nccn4-c4ccnc(NC[C@H](C)O)n4)c3)co2)cc1`
1.35

---

assay: Growth inhibition of human WM3629 cells by MTT assay; format: functional
Below is a list of entries, each paired with its recorded GI50 value.
Express it in µM; write the number only.

Illustrative cases are given below, each with its answer.
C[C@H](O)CNc1nccc(-n2ccnc2-c2ccc(NC(=O)Nc3cccc(C(F)(F)F)c3)cc2)n1 = 12.9
C[C@H](O)CNc1nccc(-n2ccnc2-c2ccc(NC(=O)Nc3ccc(Cl)c(Cl)c3)cc2)n1 = 2.45
Cc1ccc2nc(NC(=O)Nc3cccc(-c4nccn4-c4ccnc(NC[C@H](C)O)n4)c3)sc2c1 = 4.54

Now examine the next entry.
Which GI50 is reported for this compound? `C[C@H](O)CNc1nccc(-n2ccnc2-c2cccc(NC(=O)Nc3ccc(N4CCOCC4)c(C(F)(F)F)c3)c2)n1`
3.28

---

test: Selectivity ratio of GI50 for human WM3629 cells to GI50 for human A375P cells; type: functional
OBSERVABLE: RatioGI50
Reply with just the number.

Illustrative cases are given below, each with its answer.
C[C@H](O)CNc1nccc(-n2ccnc2-c2cccc(NC(=O)Nc3ccc(Cl)c(Cl)c3)c2)n1 = 5
C[C@H](O)CNc1nccc(-n2ccnc2-c2cccc(NC(=O)c3ccc(N4CCOCC4)c(C(F)(F)F)c3)c2)n1 = 5
C[C@H](O)CNc1nccc(-n2ccnc2-c2cccc(NC(=O)Nc3cccc(C(F)(F)F)c3)c2)n1 = 5
C[C@H](O)CNc1nccc(-n2ccnc2-c2cccc(NC(=O)c3ccc(Cl)c(C(F)(F)F)c3)c2)n1 = 5
Cc1ccc2nc(NC(=O)Nc3cccc(-c4nccn4-c4ccnc(NC[C@H](C)O)n4)c3)sc2c1 = 5

Which RatioGI50 is reported for this compound? `C[C@H](O)CNc1nccc(-n2ccnc2-c2cccc(NC(=O)Nc3ccc(Cl)c(C(F)(F)F)c3)c2)n1`
5

How about this compound: `C[C@H](O)CNc1nccc(-n2ccnc2-c2cccc(NC(=O)Nc3cccc(Cl)c3)c2)n1`
5

---

Below is a list of entries, each paired with its recorded GI50 value.
experiment: Growth inhibition of human WM3629 cells by MTT assay; assay type: functional
Express it in µM; write the number only.

Illustrative cases are given below, each with its answer.
C[C@H](O)CNc1nccc(-n2ccnc2-c2cccc(NC(=O)c3ncc(-c4ccncc4)s3)c2)n1 = 13.8
Cc1cn(-c2cc(C(=O)Nc3cccc(-c4nccn4-c4ccnc(NC[C@H](C)O)n4)c3)cc(C(F)(F)F)c2)cn1 = 3.49

Now examine the next entry.
Which GI50 is reported for this compound? `C[C@H](O)CNc1nccc(-n2ccnc2-c2ccc(NC(=O)Nc3cccc(Cl)c3)cc2)n1`
4.99

---

assay: Growth inhibition of human WM3629 cells by MTT assay; format: functional
OBSERVABLE: GI50

C[C@H](O)CNc1nccc(-n2ccnc2-c2ccc(NC(=O)c3ccc(N4CCOCC4)c(C(F)(F)F)c3)cc2)n1 = > 100 µM
C[C@H](O)CNc1nccc(-n2ccnc2-c2ccc(NC(=O)c3cc(-c4ccc(Cl)cc4)on3)cc2)n1 = > 100 µM

Which GI50 is reported for this compound? `C[C@H](O)CNc1nccc(-n2ccnc2-c2cccc(NC(=O)Nc3ccc(Cl)c(C(F)(F)F)c3)c2)n1`
> 100 µM
